Tested on: MDA-MB-468 breast
method_summary: NCI tumour cell line growth inhibition, 48 h; in the data active means GI50 below about 0.43 µM; inactive means the rest
Outcome codes: active, inactive

>>> qualitative_label("COC(=O)N[C@H]1CCc2c(Cl)c(OC)c(OC)c(OC)c2-c2ccc(SC)c(=O)cc21")
"active"
>>> qualitative_label("CCn1c2ccccc2c2cc(C(=O)c3ccc(C)c4ccccc34)ccc21")
"active"
>>> qualitative_label("C[N+](C)=c1ccc2nc3c(cc(NCCCNc4cc5oc6cc(=[N+](C)C)ccc-6nc5c5ccccc45)c4ccccc43)oc-2c1")
"active"
>>> qualitative_label("COc1ccc(NC(=O)Cn2c(/C=C/c3ccc(N(C)C)cc3)nc3ccccc3c2=O)cc1")
"inactive"
>>> qualitative_label("COc1ccc2[nH]c(C(=O)OCc3ccc4c(Cl)cc(Cl)c(O)c4n3)cc2c1")
"inactive"
>>> qualitative_label("CC(C)(C)OC(=O)Nc1ccc2c(c1)C(NC(=O)Nc1cccc(C#N)c1)CC(C)(C)O2 (stereo unspecified)")
"active"
>>> qualitative_label("Cc1cc(O)c(-c2ccc([C@@H](C)CN(C)C)cc2)c2c1[nH]c(=O)c1sccc12")
"inactive"
>>> qualitative_label("c1ccc2c(c1)cc1ccc3cccc4ccc2c1c34")
"active"
>>> qualitative_label("CCCCn1c(=O)c(/C=C/C(=O)/C=C/c2cc3ccccc3n(CCCC)c2=O)cc2ccccc21")
"inactive"
>>> qualitative_label("C=C1CCC2C3(C)COC(c4ccccc4Cl)OC3CCC2(C)C1/C=C/C1=CCOC1=O (stereo unspecified)")
"inactive"
>>> qualitative_label("COc1cc2nccc(Oc3ccc(NC(=O)c4cn(C(C)C)c(=O)n(-c5ccc(F)cc5)c4=O)cc3F)c2cc1OC")
"inactive"
